Origin of values: the domain aggregation screens of Martell et al. (2025)

# reported soluble fraction (log2); entries follow
# experiment_notes: soluble fraction after stress (log2 fold change); higher = more stays soluble; pooled small domains, quantitative proteomics
# condition_notes: stress: pH 4
test_readout: soluble fraction (log2)

[[record]]
biopolymer_sequence = "HMFDKVSVNNLAEAIGRLDGIYQDVLRLYYVHELPSKEIGKILNINHLTVNTRLKRAREKLFKMLKEE"
relation_sign = "="
recorded_value = -0.812

[[record]]
biopolymer_sequence = "HMIEQEQAFLEQVLKKYSQEELVLTVGSRTLVKYSAGQLERLLEHYPHVRLASSPVNGEAGFLLSRG"
relation_sign = "="
recorded_value = -0.784

[[record]]
biopolymer_sequence = "HMKVTGITDDILQRLKQQKGYLMLSDKSSPDEIYAAFGVSKKVFKQAIGTLFKQRQIIIEEQGIRLAN"
relation_sign = "="
recorded_value = 0.201

[[record]]
biopolymer_sequence = "HMDGIPVPDVKGTVEAEATATLKNSGFEVTKTQDFSDTVEAGKVISQNPAGGSSAASGSSVTLVISQGPN"
relation_sign = "="
recorded_value = -0.232

[[record]]
biopolymer_sequence = "HMRVPQWLVDKIAAAGIDTHRSGPALKALAAKAGTPEQLDQAIARAKALRRRTGSTQSLNVGLLGSILEGT"
relation_sign = "="
recorded_value = -0.0808

[[record]]
biopolymer_sequence = "HMENPLETYYSQWVSAIKREHPEASFVKDTDGKYYVEGLTKNRLAVIYENPHLVRLVNATTNLHVE"
relation_sign = "="
recorded_value = 0.14

[[record]]
biopolymer_sequence = "HMETSLVIQIDGAVNSPGIYQVTPGTRIFEALELAGGVREDAQTEALNLALPVYDGQRISIPSSFA"
relation_sign = "="
recorded_value = -1.58

[[record]]
biopolymer_sequence = "HMRKATEVPFTAFKDSIENSHGKLSKAGLARHLADEYGMSQRNMERRINNLIDNKTIKYGNEGGLVWIG"
relation_sign = "="
recorded_value = 0.22

[[record]]
biopolymer_sequence = "HMDGPGDRLLIAIQENSMTQKKFAQLIGMSPNGLNSIIKGKKRLSRVLAIATERLTGVRADWILQNEQPK"
relation_sign = "="
recorded_value = -0.244

[[record]]
biopolymer_sequence = "HMVDFVNVVVPVKANYGGEAVVEFLDERLSEFGTEGIYRIELQGETMENPSPDYSQLKAKYHISEIVDRT"
relation_sign = "="
recorded_value = -0.375

[[record]]
biopolymer_sequence = "HMQGWREWDYSADLYINARVGGKIEPTENSPISRVYELDEPVSVVAFTSTRYFKLSSGDYIFAEYLSAQKV"
relation_sign = "="
recorded_value = -0.18

[[record]]
biopolymer_sequence = "HMRHLSVPSQDTQQVLQRLKVELALPEGARVRSDPSDPGRRLIPFTESVPQEMIDQYPVVSINI"
relation_sign = "="
recorded_value = -0.458

[[record]]
biopolymer_sequence = "HMGWEPTPVLVAARDISGGTVLDQDMLRVEAIPSRLVTPSIVRSDLLASVQDAKLLLPMKQGDLLNFNMLQ"
relation_sign = "="
recorded_value = -0.49

[[record]]
biopolymer_sequence = "HMVSDSAELSAFVADVIKENAQAVADYKGGKTNVFGWLMGQIIKKSGGKATPAAAAALLKAELEK"
relation_sign = "="
recorded_value = -0.14

[[record]]
biopolymer_sequence = "HMGGRRHANMSREEEAAFLAPFFEKAAQGGILVVREIRQALDAHLGRTVPLSTVYNLLHRHNWRKL"
relation_sign = "="
recorded_value = 0.379

[[record]]
biopolymer_sequence = "HMRDKTMLGNVIRTRRKKMNLTLEELSKQVGITSGGLSQIERGLVDPSLSVLRRISRALNLPMNVMFSE"
relation_sign = "≥"
recorded_value = 0.43

[[record]]
biopolymer_sequence = "HMNGAVAEQARKQLMAALKASEFIAEEKLDEWLDALALPEDKRTAIVDAVDELDYEEAISELEN"
relation_sign = "="
recorded_value = 0.0531

[[record]]
biopolymer_sequence = "HMSQSIGQEKALSIALADAGVQKENALGLEVKGEYDDGQLLYEVEFRAGGVEYEYEVRASDGRIVKAERD"
relation_sign = "="
recorded_value = 0.0913

